measured on: Human EphA2 (ephrin receptor A2) on cells (human, UniProt P29317 25-976)
Sequence (P29317 25-976): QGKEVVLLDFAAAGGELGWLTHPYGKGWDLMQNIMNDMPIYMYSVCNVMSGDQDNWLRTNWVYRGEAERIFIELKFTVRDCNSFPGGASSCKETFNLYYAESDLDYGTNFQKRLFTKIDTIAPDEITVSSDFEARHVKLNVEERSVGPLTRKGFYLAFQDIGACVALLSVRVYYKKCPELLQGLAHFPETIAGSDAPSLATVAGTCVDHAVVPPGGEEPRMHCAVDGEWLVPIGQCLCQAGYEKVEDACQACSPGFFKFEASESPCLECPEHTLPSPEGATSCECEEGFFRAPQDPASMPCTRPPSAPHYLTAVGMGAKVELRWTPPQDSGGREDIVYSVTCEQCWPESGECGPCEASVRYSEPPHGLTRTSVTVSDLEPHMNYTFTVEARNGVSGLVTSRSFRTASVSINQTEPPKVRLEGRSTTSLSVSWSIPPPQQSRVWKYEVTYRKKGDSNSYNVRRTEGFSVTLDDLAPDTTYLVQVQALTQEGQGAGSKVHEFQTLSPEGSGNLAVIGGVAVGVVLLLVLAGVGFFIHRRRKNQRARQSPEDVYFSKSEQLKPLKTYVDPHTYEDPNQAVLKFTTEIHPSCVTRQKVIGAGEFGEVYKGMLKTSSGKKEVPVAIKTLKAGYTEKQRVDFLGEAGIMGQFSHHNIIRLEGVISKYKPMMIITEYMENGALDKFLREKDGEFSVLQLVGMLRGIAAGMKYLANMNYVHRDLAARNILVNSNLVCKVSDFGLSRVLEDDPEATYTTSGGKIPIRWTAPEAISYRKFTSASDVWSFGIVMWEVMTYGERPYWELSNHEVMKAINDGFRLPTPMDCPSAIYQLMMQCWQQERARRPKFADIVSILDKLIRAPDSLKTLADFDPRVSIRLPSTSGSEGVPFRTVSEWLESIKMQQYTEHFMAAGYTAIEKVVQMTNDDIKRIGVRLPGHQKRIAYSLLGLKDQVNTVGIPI
test name: flow cytometry on A549 cells
test readout: Flow Delta
// return just the number, without any unit appended

// known answers, use as guide
- AB-009813 (antibody, mouse IgG2a, V domains shown) VH: QVQLQQWGAGLLKPSETLSLTCAVYGGSFSDYYWSWIRQPPGKGLEWIGEVNHAGSINYNNYNPSLKSRVTISVDPSKNQFSLKLTSVTAADTAVYYCAKPLRPHCTNGVCYSGDAFDIWGQGTMVTVAS VL: SYVLTQPPSVSVAPGQTARITCGGNNIGSKNVHWYQQKPGQAPVLVVYDDSDRPSGIPEQFSGSNSGNTATLTISRVEAGDEADYYCQVWDSSSDHLVFGGGTKLTVL: 578000
- AB-009814 (antibody, mouse IgG2a, V domains shown) VH: QVQLQQWGAGLLKPSETLSLTCAVYGGSFSDYYWSWIRQPPGKGLEWIGEVNHRGSINYNPSLKSRVTISVDPSKNQFSLKLTSVTAADTAVYYCAKPLRPHCTNGVCYSGDAFDIWGQGTMVTVAS VL: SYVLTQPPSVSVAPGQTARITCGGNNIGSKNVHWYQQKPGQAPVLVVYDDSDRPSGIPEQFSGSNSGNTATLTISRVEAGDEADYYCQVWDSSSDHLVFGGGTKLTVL: 407000

// recorded Flow Delta for AB-009816 (antibody, mouse IgG2a, V domains shown) VH: QVQLQQWGAGLLKPSETLSLTCAVYGGSFSDYYWSWIRQPPGKGLEWIGEVNHRGSINYNNYNPSLKSRVTISVDASKNQFSLKLTSVTAADTAVYYCAKPLRPHCTNGVCYSGDAFDIWGQGTMVTVAS VL: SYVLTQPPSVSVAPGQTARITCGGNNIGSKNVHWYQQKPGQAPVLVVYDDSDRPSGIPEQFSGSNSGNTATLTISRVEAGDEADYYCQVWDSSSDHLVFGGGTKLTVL : 670000
